# Test system: MIWI (PIWIL1) piRISC loaded with L1MC piRNA (30 nt);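 also: 1 nM active piRISC with 0.1 nM target library at 33 °C single turnover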
# Assay: pre-steady-state target cleavage rate (min^-1); higher = faster piRNA-guided slicing of the target
# Test parameters: guide: L1MC piRNA 5'p-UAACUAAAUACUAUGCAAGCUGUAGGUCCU; auxiliary factor: 500 nM mouse GTSF1
Over roughly 8,200 sequences, “pre-steady-state target cleavage rate” has its median near 0.024; the highest 2% begin near 1.3. Many of the other results were omitted from the sample, so the highest values are more common in it than they were.
Item-by-item account of pre-steady-state target cleavage rate

In the examples that follow, each entry is paired with its recorded pre-steady-state target cleavage rate.
{"Sequence data": "UCCUGGUACAGCUUGCAUAGUAUUUUGAUA", "pre-steady-state target cleavage rate": 0.166}
{"Sequence data": "UGGACCUACAGCUUGCAUAGUAUAUAGUUA", "pre-steady-state target cleavage rate": 0.892}
{"Sequence data": "UCCUGGUACACCUUGCAUAGUAAUUAGUUA", "pre-steady-state target cleavage rate": 0.546}
{"Sequence data": "UGGACCUACAGCUUGCAUAGUAUAUAGUAA", "pre-steady-state target cleavage rate": 0.356}

Request: Fill blank: measured pre-steady-state target cleavage rate of the sequence `UCCUGCUACAGCUAGCAUAGAAUUUAGUUA` is ____.
Response: 0.528

Request: Fill blank: measured pre-steady-state target cleavage rate of the sequence `UCCUGGAUGUCCUUGGAUAGUAUUUUGUUA` is ____.
Response: 0.0668

Request: Fill blank: measured pre-steady-state target cleavage rate of the sequence `AGGACCUACAGCUUGCAUAGUAUAUAGUAA` is ____.
Response: 0.493

====

# System: MIWI (PIWIL1) piRISC loaded with L1MC piRNA (30 nt);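 also: 1 nM active piRISC with 0.1 nM target library at 33 °C single turnover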
# Assay: pre-steady-state target cleavage rate (min^-1); higher = faster piRNA-guided slicing of the target
# Test parameters: guide: L1MC piRNA 5'p-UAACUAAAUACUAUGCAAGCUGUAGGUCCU; auxiliary factor: none (no GTSF1)
Whole data set: some 8,200 sequences, median “pre-steady-state target cleavage rate” near 0.024, cut for the highest 2% near 1.3. This is one part of a sample in which the highest values are shown more often than they occur.
Our labelling divides records by pre-steady-state target cleavage rate into ranges: band A (below 0.06), band B (0.06 to below 0.07), band C (0.07 or more)

Request: Tag the class for `AGGACCUAGUGCUUGCAUAGUAUUUAGUAA`
Response: band A

Request: Tag the class for `UGGACCUACAGCCUGCAUAGUAUUUAGUUA`
Response: band C

Request: Tag the class for `UCCAUCCUACAGCUUGCAUAGUAUUUAGUUA`
Response: band A

====

# Test system: MIWI (PIWIL1) piRISC loaded with L1MC piRNA (30 nt);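 also: 1 nM active piRISC with 0.1 nM target library at 33 °C single turnover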
# Assay: pre-steady-state target cleavage rate (min^-1); higher = faster piRNA-guided slicing of the target
# Test parameters: guide: L1MC piRNA 5'p-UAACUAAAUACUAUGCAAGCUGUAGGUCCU; auxiliary factor: none (no GTSF1)
In all, about 8,200 sequences were measured (“pre-steady-state target cleavage rate”: median about 0.024, highest 2% from about 1.3 on). What follows is part of a selection rich in the highest values, with near analogues and random picks from the rest.
Param threshold (0.01) applies to pre-steady-state target cleavage rate; output Criterion met when value >= threshold, Criterion not met when value < threshold.

Answered examples (10):
{"Sequence data": "UGGACGUACAGCUUGCAAAGUAUUUAGUUA", "Target entity": "MIWI (PIWIL1) piRISC loaded with L1MC piRNA (30 nt)", "Group label": "Criterion met"}
{"Sequence data": "UCCUCCUAACAGCUUGCAUAGUAUUUAGUUA", "Target entity": "MIWI (PIWIL1) piRISC loaded with L1MC piRNA (30 nt)", "Group label": "Criterion met"}
{"Sequence data": "UCGAGGUACAGCUUGCAUAGUAUUUUCAAA", "Target entity": "MIWI (PIWIL1) piRISC loaded with L1MC piRNA (30 nt)", "Group label": "Criterion not met"}
{"Sequence data": "UCCACCUACAGCUUGCAUAGUACUUUAGUUA", "Target entity": "MIWI (PIWIL1) piRISC loaded with L1MC piRNA (30 nt)", "Group label": "Criterion not met"}
{"Sequence data": "UCCUGCUACAGUCUUGCAUAGUAUUUAGUUA", "Target entity": "MIWI (PIWIL1) piRISC loaded with L1MC piRNA (30 nt)", "Group label": "Criterion met"}
{"Sequence data": "UCGACGUACAGCUUGCAUUGUAUUUAGUUA", "Target entity": "MIWI (PIWIL1) piRISC loaded with L1MC piRNA (30 nt)", "Group label": "Criterion met"}
{"Sequence data": "UCGACGUACAGCUUGCUUAGUAUUUAGUUA", "Target entity": "MIWI (PIWIL1) piRISC loaded with L1MC piRNA (30 nt)", "Group label": "Criterion met"}
{"Sequence data": "UGGACGUACAGCUUGCAUUGUAUUUAGUUA", "Target entity": "MIWI (PIWIL1) piRISC loaded with L1MC piRNA (30 nt)", "Group label": "Criterion met"}
{"Sequence data": "UGGACCUACAGCUUGUCAUAGUAUUUAGUUA", "Target entity": "MIWI (PIWIL1) piRISC loaded with L1MC piRNA (30 nt)", "Group label": "Criterion not met"}
{"Sequence data": "UCCACCUACUGCUUGCAUAGUAUUUAGAUA", "Target entity": "MIWI (PIWIL1) piRISC loaded with L1MC piRNA (30 nt)", "Group label": "Criterion met"}

Request: # bool: pre-steady-state target cleavage rate of `AGGACGUACAGCUUGCAUAGUAUUUAGUUA` >= 0.01
Response: Criterion met

Request: # bool: pre-steady-state target cleavage rate of `UCCUGGAUGAGCUAGCAUAGUAUAUAGUUA` >= 0.01
Response: Criterion not met

Request: # bool: pre-steady-state target cleavage rate of `AGGACGUACAGCUUGCUUAGUAUUUAGUUA` >= 0.01
Response: Criterion met

====

# Test system: MIWI (PIWIL1) piRISC loaded with L1MC piRNA (30 nt);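 also: 1 nM active piRISC with 0.1 nM target library at 33 °C single turnover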
# Assay: pre-steady-state target cleavage rate (min^-1); higher = faster piRNA-guided slicing of the target
# Test parameters: guide: L1MC piRNA 5'p-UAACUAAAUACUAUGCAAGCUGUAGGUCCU; auxiliary factor: 500 nM mouse GTSF1
Whole data set: some 8,200 sequences, median “pre-steady-state target cleavage rate” near 0.024, cut for the highest 2% near 1.3. What follows is part of a selection rich in the highest values, with near analogues and random picks from the rest.
Measurement label: pre-steady-state target cleavage rate
Please give only the number in your answer, with no unit.

In the examples that follow, each entry is paired with its recorded pre-steady-state target cleavage rate.
{"Sequence data": "UCCUCCUACCAGCUUGCAUAGUAUUUAGUUA", "Target entity": "MIWI (PIWIL1) piRISC loaded with L1MC piRNA (30 nt)", "pre-steady-state target cleavage rate": 1.15}
{"Sequence data": "UCCACCUACAGCUUGCUAUGUAUUUAGAAA", "Target entity": "MIWI (PIWIL1) piRISC loaded with L1MC piRNA (30 nt)", "pre-steady-state target cleavage rate": 0.00878}
{"Sequence data": "AGGACCUUCAGCUUGCUUAGUAUUUAGUUA", "Target entity": "MIWI (PIWIL1) piRISC loaded with L1MC piRNA (30 nt)", "pre-steady-state target cleavage rate": 1.44}
{"Sequence data": "UCCUGGUUCAGGUUGCAUAGUAUUUAGUUA", "Target entity": "MIWI (PIWIL1) piRISC loaded with L1MC piRNA (30 nt)", "pre-steady-state target cleavage rate": 0.711}
{"Sequence data": "UCCAGCUACAGCUUGCUUAGUAUUUAGUUA", "Target entity": "MIWI (PIWIL1) piRISC loaded with L1MC piRNA (30 nt)", "pre-steady-state target cleavage rate": 0.78}

Request: Fill blank: measured pre-steady-state target cleavage rate of the sequence `UCCUGGAUCAGCUUGCAUAGUAUUUAGUAA` is ____.
Response: 0.96

Request: Fill blank: measured pre-steady-state target cleavage rate of the sequence `UCCUGGUUGUGCUUGCAUAGUAUUUAGUUA` is ____.
Response: 0.584

====

# Test system: MIWI (PIWIL1) piRISC loaded with L1MC piRNA (30 nt);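 also: 1 nM active piRISC with 0.1 nM target library at 33 °C single turnover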
# Assay: pre-steady-state target cleavage rate (min^-1); MIWI and MILI are mouse PIWI proteins and EfPiwi is from a freshwater sponge; tags in brackets are library labels; higher = faster piRNA-guided slicing of the target;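 also: 1 nM active piRISC with 0.1 nM target library at 33 °C single turnover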
# Test parameters: guide: L1MC piRNA 5'p-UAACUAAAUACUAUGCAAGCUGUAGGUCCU; auxiliary factor: none (no GTSF1)
Whole data set: some 8,200 sequences, median “pre-steady-state target cleavage rate” near 0.024, cut for the highest 2% near 1.3. The full list was thinned out, with the highest values kept by preference.
Our labelling divides records by pre-steady-state target cleavage rate into ranges: one (below 0.01), two (0.01 to below 0.03), three (0.03 or more)

Answered examples (5):
{"Sequence data": "UCCUGGAUGUGCUUGCAUGGUAUUUAGUUA", "Group label": "three"}
{"Sequence data": "UCCUCCUACAGCUUGCUUAGUAUAUAGUUA", "Group label": "two"}
{"Sequence data": "UCCUGGAUGUCGUGCAUAGUAUUUAGUUA", "Group label": "one"}
{"Sequence data": "UCCUCCAACAGCUUGCAUAGUAUUUACUUA", "Group label": "two"}
{"Sequence data": "UCCAGGAACAGCUUGCAUAGUAUUUACAAA", "Group label": "one"}

Request: Tag the class for `UCCUGGAACAGCUUGCAUAGUAUUUAGUAA`
Response: three

Request: Tag the class for `UCCUCCUACACGUUGCAUAGUAUUUAGUAA`
Response: one

Request: Tag the class for `UCCUGGAUGAGCUUGCAUAGUAUUAAGUAA`
Response: two

Request: Tag the class for `UGGACCUACUGCUUGCAUUGUAUUUAGUUA`
Response: three

Request: Tag the class for `UGGACCUACAGCUUGCUUACUAUUUAGUUA`
Response: two

Request: Tag the class for `AGGACCUACAGCUUGGAUAGUAUAUAGUUA`
Response: three

Request: Tag the class for `UCCAGGAACAGCUUGCAUAGUAUUUAGUAA`
Response: three

Request: Tag the class for `UCCGCCUACAGCUUGCAUAGUAUUUAGUUA`
Response: three

Request: Tag the class for `UCCUGCUACAGCAUGCAUAGUAAUUAGUUA`
Response: one

Request: Tag the class for `UCGACCUACAGCUUGCUUAGUAUAUAGUUA`
Response: two
